Values were extracted from paper PMC8699473.

Assay: Long-term stability in spiked pooled human plasma
Settings: validation standard LLOV
Long-term stability, 3 month, -80°C Accuracy [%] by entry:
The answer is to be given in %; state only the numeric part.

[
  {
    "chemSmiles": "CNCc1ccc(-c2[nH]c3cc(F)cc4c3c2CCNC4=O)cc1",
    "quantitativeReadout": 108.0
  }
]

q: Data request, read-out Long-term stability, 3 month, -80°C Accuracy [%], for CC1(C)CCC(CN2CCN(c3ccc(C(=O)NS(=O)(=O)c4ccc(NCC5CCOCC5)c([N+](=O)[O-])c4)c(Oc4cnc5[nH]ccc5c4)c3)CC2)=C(c2ccc(Cl)cc2)C1
a: 99.3

q: Data request, read-out Long-term stability, 3 month, -80°C Accuracy [%], for CO[C@@H]1[C@H](N(C)C(=O)c2ccccc2)C[C@H]2O[C@]1(C)n1c3ccccc3c3c4c(c5c6ccccc6n2c5c31)C(=O)NC4
a: 112.8

q: Data request, read-out Long-term stability, 3 month, -80°C Accuracy [%], for O=c1[nH]c(=O)n([C@H]2C[C@H](O)[C@@H](CO)O2)cc1C(F)(F)F
a: 85.8

###

Experiment: Long-term stability in spiked pooled human plasma
Settings: validation standard MOV
Long-term stability, 3 month, -80°C Accuracy [%] by entry:
The answer is to be given in %; state only the numeric part.

Past entries and their recorded results:
[
  {
    "compound": "Cc1[nH]c2ccccc2c1CCNCc1ccc(/C=C/C(=O)NO)cc1 [Panobinostat]",
    "quantitativeReadout": 82.1
  },
  {
    "compound": "CCc1cc2c(cc1N1CCC(N3CCOCC3)CC1)C(C)(C)c1[nH]c3cc(C#N)ccc3c1C2=O [Alectinib]",
    "quantitativeReadout": 86.7
  },
  {
    "compound": "CN(C)C(=O)c1cc2cnc(Nc3ccc(N4CCNCC4)cn3)nc2n1C1CCCC1 [Ribociclib]",
    "quantitativeReadout": 104.3
  },
  {
    "compound": "Cc1cn(-c2cc(NC(=O)c3ccc(C)c(Nc4nccc(-c5cccnc5)n4)c3)cc(C(F)(F)F)c2)cn1 [Nilotinib]",
    "quantitativeReadout": 93.1
  },
  {
    "compound": "COc1cc2nccc(Oc3ccc(NC(=O)NC4CC4)c(Cl)c3)c2cc1C(N)=O [Lenvatinib]",
    "quantitativeReadout": 100.5
  }
]

q: Data request, read-out Long-term stability, 3 month, -80°C Accuracy [%], for CCOc1cc2ncc(C#N)c(Nc3ccc(OCc4ccccn4)c(Cl)c3)c2cc1NC(=O)/C=C/CN(C)C [Neratinib]
a: 92.5

q: Data request, read-out Long-term stability, 3 month, -80°C Accuracy [%], for Cc1nc(Nc2ncc(C(=O)Nc3c(C)cccc3Cl)s2)cc(N2CCN(CCO)CC2)n1 [Dasatinib]
a: 101.1

###

Test: Freeze-thaw stability in spiked pooled human plasma
Format: physicochemical
Conditions: validation standard LLOV
parameterMeasured: Freeze-Thaw Accuracy [%] (%)
The answer is to be given in %; state only the numeric part.

Past entries and their recorded results:
[
  {
    "compound": "COc1cc2nccc(Oc3ccc(NC(=O)NC4CC4)c(Cl)c3)c2cc1C(N)=O [Lenvatinib]",
    "Freeze-Thaw Accuracy [%] / %": 111.6
  },
  {
    "compound": "CCC1=C[C@@H]2CN(C1)Cc1c([nH]c3ccccc13)[C@@](C(=O)OC)(c1cc3c(cc1OC)N(C)[C@H]1[C@@](O)(C(=O)OC)[C@H](OC(C)=O)[C@]4(CC)C=CCN5CC[C@]31[C@@H]54)C2 [Vinorelbine]",
    "Freeze-Thaw Accuracy [%] / %": 120.0
  },
  {
    "compound": "COc1cc2nccc(Oc3ccc(NC(=O)C4(C(=O)Nc5ccc(F)cc5)CC4)cc3)c2cc1OC [Cabozantinib]",
    "Freeze-Thaw Accuracy [%] / %": 90.2
  },
  {
    "compound": "Cc1c(C(=O)Nc2ccc(N3C[C@@H](C)O[C@@H](C)C3)nc2)cccc1-c1ccc(OC(F)(F)F)cc1 [Sonidegib]",
    "Freeze-Thaw Accuracy [%] / %": 103.7
  },
  {
    "compound": "COc1cc2nccc(Oc3ccc(NC(=O)Nc4cc(C)on4)c(Cl)c3)c2cc1OC [Tivozanib]",
    "Freeze-Thaw Accuracy [%] / %": 90.0
  }
]

q: Data request, read-out Freeze-Thaw Accuracy [%], for CCc1cc2c(cc1N1CCC(N3CCOCC3)CC1)C(C)(C)c1[nH]c3cc(C#N)ccc3c1C2=O [Alectinib]
a: 91.2

q: Data request, read-out Freeze-Thaw Accuracy [%], for NC(=O)c1cccc2cn(-c3ccc([C@@H]4CCCNC4)cc3)nc12 [Niraparib]
a: 98.0

###

Assay: Long-term stability in spiked pooled human plasma
Details: validation standard LLOV
parameterMeasured: Long-term stability, 2 month, -20°C Accuracy [%] (%)
The answer is to be given in %; state only the numeric part.

Past entries and their recorded results:
[
  {
    "compound": "CNC(=O)c1ccccc1Sc1ccc2c(/C=C/c3ccccn3)n[nH]c2c1",
    "quantitativeReadout": 110.1
  },
  {
    "compound": "O=C(c1ccc(F)c(F)c1Nc1ccc(I)cc1F)N1CC(O)([C@@H]2CCCCN2)C1",
    "quantitativeReadout": 99.0
  },
  {
    "compound": "Cc1cn(-c2cc(NC(=O)c3ccc(C)c(Nc4nccc(-c5cccnc5)n4)c3)cc(C(F)(F)F)c2)cn1",
    "quantitativeReadout": 93.3
  },
  {
    "compound": "Cc1nc(Nc2ncc(C(=O)Nc3c(C)cccc3Cl)s2)cc(N2CCN(CCO)CC2)n1",
    "quantitativeReadout": 82.2
  }
]

q: Data request, read-out Long-term stability, 2 month, -20°C Accuracy [%], for COc1cc2ncnc(Nc3ccc(F)c(Cl)c3)c2cc1OCCCN1CCOCC1
a: 101.3

q: Data request, read-out Long-term stability, 2 month, -20°C Accuracy [%], for C[C@H]1Oc2cc(cnc2N)-c2c(nn(C)c2C#N)CN(C)C(=O)c2ccc(F)cc21
a: 90.0

q: Data request, read-out Long-term stability, 2 month, -20°C Accuracy [%], for COc1cc(N2CCC(N3CCN(C)CC3)CC2)ccc1Nc1ncc(Cl)c(Nc2ccccc2P(C)(C)=O)n1
a: 100.6

###

Experiment: Short-term stability in spiked pooled human plasma (bench-top, 4 °C, 56 °C)
Conditions: validation standard 2xLLOV
parameterMeasured: Short-time stability (24h, RT, with daylight) Accuracy [%]

Past entries and their recorded results:
[
  {
    "chemSmiles": "COc1cc2ncnc(Nc3ccc(F)c(Cl)c3)c2cc1OCCCN1CCOCC1",
    "result": "91.9%"
  },
  {
    "chemSmiles": "O=C(c1ccc(F)c(F)c1Nc1ccc(I)cc1F)N1CC(O)([C@@H]2CCCCN2)C1",
    "result": "98.3%"
  },
  {
    "chemSmiles": "C[C@@H](Oc1cc(-c2cnn(C3CCNCC3)c2)cnc1N)c1c(Cl)ccc(F)c1Cl",
    "result": "85.9%"
  }
]

Field: next compound
q: Data request, read-out Short-time stability (24h, RT, with daylight) Accuracy [%], for O=C(c1cc(Cc2n[nH]c(=O)c3ccccc23)ccc1F)N1CCN(C(=O)C2CC2)CC1
a: 91.3%

###

Long-term stability, 3 month, -20°C Accuracy [%] by entry:
Test: Long-term stability in spiked pooled human plasma
Conditions: validation standard ULOV
The answer is to be given in %; state only the numeric part.

Past entries and their recorded results:
[
  {
    "chemSmiles": "Cc1ccc(Nc2nccc(N(C)c3ccc4c(C)n(C)nc4c3)n2)cc1S(N)(=O)=O",
    "quantitativeReadout": 98.1
  },
  {
    "chemSmiles": "COc1cc2nccc(Oc3ccc(NC(=O)NC4CC4)c(Cl)c3)c2cc1C(N)=O",
    "quantitativeReadout": 98.3
  },
  {
    "chemSmiles": "NC(=O)c1cccc2cn(-c3ccc([C@@H]4CCCNC4)cc3)nc12",
    "quantitativeReadout": 100.4
  }
]

q: Data request, read-out Long-term stability, 3 month, -20°C Accuracy [%], for Cc1cc(Nc2ncc(Cl)c(Nc3ccccc3S(=O)(=O)C(C)C)n2)c(OC(C)C)cc1C1CCNCC1
a: 101.8

###

Assay: Short-term stability in spiked pooled human plasma (bench-top, 4 °C, 56 °C)
Conditions: validation standard LLOV
parameterMeasured: Short-time stability (24h, RT, with daylight) Accuracy [%] (%)
The answer is to be given in %; state only the numeric part.

Past entries and their recorded results:
[
  {
    "molecule": "O=C(Nc1cnn2ccc(N3CCC[C@@H]3c3cc(F)ccc3F)nc12)N1CC[C@H](O)C1 [Larotrectinib]",
    "quantitativeReadout": 115.6
  },
  {
    "molecule": "CC(=O)Nc1cccc(-n2c(=O)n(C3CC3)c(=O)c3c(Nc4ccc(I)cc4F)n(C)c(=O)c(C)c32)c1 [Trametinib]",
    "quantitativeReadout": 78.3
  },
  {
    "molecule": "O=C1CN2Cc3c(ccc(Cl)c3Cl)N=C2N1 [Anagrelide]",
    "quantitativeReadout": 78.3
  }
]

Field: next molecule
q: Data request, read-out Short-time stability (24h, RT, with daylight) Accuracy [%], for C[C@]12CC[C@H](O)CC1=CC[C@@H]1[C@@H]2CC[C@]2(C)C(c3cccnc3)=CC[C@@H]12 [Abiraterone]
a: 105.6
